- Test system: HOP-62 NSCLC
- method_description: NCI-60 one-dose screen, 48 h
- condition_context: 10 µM
- Method: Growth inhibition of the HOP-62 human Non-Small Cell Lung tumor cell line is measured as a screen for anti-cancer activity. Cells are grown in 96 well plates and exposed to the test compound for 48 hours. Compounds are tested at a single concentration, which is 10^-5 M for most compounds. The reported endpoint is percent growth (GI% or GIPRCNT), where numbers from 0 - 100% represent growth inhibition, and numbers from -100% - 0 represent cell death. […]
About 83,000 compounds went through this panel and 20% of them were active in at least one assay; those are over-represented in the sample as a whole. Activity calls are given as the source filed them. How the source made its calls: active means growth percent below 10; inactive means the rest.
Possible outcomes: 1 = active, 0 = inactive

smiles_repr	class_assignment
CC[C@]12C=CCN3CC[C@@]4(c5ccc(OC)cc5N(C)[C@H]4[C@@](O)(C(=O)OC)[C@@H]1OC(=O)CCCC[P+](c1ccc(OC)cc1)(c1ccc(OC)cc1)c1ccc(OC)cc1)[C@@H]32	1
CC1=C(CCC=NNC(N)=O)C2=C(C)C3(CC3)[C@@](C)(O)C(=O)C2=C1	1
C#CC[Se]C(=O)c1ccc2n[se]nc2c1	0
O=C(/C=C/c1ccc(Cl)cc1)c1nc2ccccc2n1Cc1ccc(F)cc1	0

----------
- System: HL-60(TB) leukemia
- method_description: NCI-60 one-dose screen, 48 h (100 = growth as untreated, 0 = no growth, -100 = all killed)
- condition_context: 10 µM unless noted
Compounds without any hit were thinned out: in the full panel of roughly 83,000, 20% have a hit.
So basically: growth at 10% or higher? That is 1. Lower than 10%? That is 0.

> print(dat)
                                    molecule  class.assignment
 1  O=c1oc2ccccc2cc1-c1csc(N2N=C(c3ccccc3)CC2c2ccc(N3CCOCC3)cc2)n1 (centres undefined)                 1
 2  O=C(/C=C1\C(=O)N(Cc2ccccc2)c2ccccc21)c1cc2ccccc2oc1=O                 1
 3  O=C(Nc1nc2ccc([N+](=O)[O-])cc2s1)Nc1ccccc1I                 0
 4  Cn1cc(-c2cc(N)n3nc(-c4cn(C)c5ccccc45)cc3n2)c2cc(Cl)ccc21                 0
 5  Cc1ccc(C2CC(c3ccc(S(=O)(=O)NCCNc4nc(N(C)C)nc(N5CCOCC5)n4)cc3)=Nc3c(N)nc(N)nc3N2)cc1 (centres undefined)                 1
 6  CC1=N/C(=C\c2ccc(N(C)C)cc2)C(=O)N1CCc1ccc(S(N)(=O)=O)cc1                 1
 7  CC(=O)Nc1cccc(Nc2nccc(N[C@@H](C)c3ccccc3)n2)c1                 0
 8  C=C1CCC2C3(C)COC(c4cccc(F)c4)OC3CCC2(C)C1CC(O)C1=CCOC1=O (centres undefined)                 1
 9  O=c1[nH]n(C(=S)N/N=C/c2ccc(F)cc2)c(=O)c2ccccc12                 1
10  CCOC(=O)C(N=Nc1ccc(S(=O)(=O)N=C(N)N)cc1)C(C)=O (centres undefined)                 1
11  O=C1Nc2ccc(Cl)cc2/C1=C/c1cccc(OCc2ccccn2)c1                 0
12  Cc1cc(C)cc(Oc2cccc(-c3c(C)nnn3C3CCN(CCN(C)C)CC3)n2)c1                 0
13  Cc1ccc(/C(CSc2nnc(-c3c[nH]c4ccccc34)n2-c2ccccc2)=N/O)cc1                 0
14  O=C(Nc1ccc(I)cc1)Nc1nc2ccc([N+](=O)[O-])cc2s1                 0
15  O=C(Nc1ccc(OCC(=O)c2ccc(Cl)cc2)cc1)Nc1ccc(Cl)c(C(F)(F)F)c1                 1
16  O=C(O)CCN1C(=O)/C(=C/C=C/c2ccc([N+](=O)[O-])o2)SC1=S                 0
17  N#CC1=C(c2ccco2)Nc2c(c(-c3ccccc3)nn2-c2ccccc2)C12C(=O)Nc1ccc(Cl)cc12 (centres undefined)                 1
18  O=C(NN1C(=O)/C(=C/C=C/c2ccc([N+](=O)[O-])o2)SC1=S)c1ccc(Cl)cc1                 0

----------
- Test system: HS 578T breast
- method_description: NCI-60 one-dose screen, 48 h (100 = growth as untreated, 0 = no growth, -100 = all killed)
- condition_context: 10 µM
This is part of a sample that, as a whole, favours compounds with a hit. Of some 83,000 tested, about 20% had one in any assay.

smiles_repr	growth (%)
COC(=O)c1ccc(-n2cc(CCCN(CCNc3ccnc4cc(Cl)ccc34)C(=O)CCC(=O)O[C@@H]3O[C@@H]4OC5(C)CC[C@H]6[C@H](C)CC[C@@H]([C@H]3C)[C@@]46OO5)nn2)cc1	49.6
CC[C@]12C=CCN3CC[C@@]4(c5ccc(OC)cc5N(C)[C@H]4[C@@](O)(C(=O)OC)[C@@H]1OC(=O)CCCC[P+](c1ccc(C)cc1)(c1ccc(C)cc1)c1ccc(C)cc1)[C@@H]32	-69.9
CC[C@]12C=CCN3CC[C@@]4(c5ccc(OC)cc5N(C)[C@H]4[C@@](O)(C(=O)OC)[C@@H]1OC(=O)CCC[P+](C1CCCCC1)(C1CCCCC1)C1CCCCC1)[C@@H]32	-33
CC1=C(CCC=NNC(N)=O)C2=C(C)C3(CC3)[C@@](C)(O)C(=O)C2=C1	-24.5
COc1ccc2cc([C@H](C)C(=O)[Se]CCC#N)ccc2c1	-10.2
COC(=O)CCn1c(-c2ccc(-n3cc(-c4ccc(O[C@H]5O[C@@H]6OC7(C)CC[C@H]8[C@H](C)CC[C@@H]([C@H]5C)[C@@]68OO7)cc4)nn3)cc2)nc2ccccc21	30.3
CC(C)N=C([Se])NC(=O)c1ccccc1	-2.5

----------
- Test system: MDA-MB-468 breast
- method_description: NCI-60 one-dose screen, 48 h
- condition_context: 10 µM unless noted
About 83,000 compounds went through this panel and 20% of them were active in at least one assay; those are over-represented in the sample as a whole. Active and inactive are the calls of the source. Rule for the calls: active = growth percent below 10; inactive = the rest.
Classes used: Y (active), N (inactive)

compound	class_assignment
Cc1cc(N)ccc1N	N
COc1ccc(N)cc1N	N
CCC(=O)OC1CCn2c1nc1c2C(=O)C(C)=C(N2CC2)C1=O (stereo not given)	N
C#Cc1cccc(Nc2nc(Cl)nc3cc(NC(=O)CF)ccc23)c1	N
CCOC(=O)[C@@H](C)C[C@H](Cc1ccccc1)NC(=O)c1csc([C@@H](C[C@H](C(C)C)N(C)C(=O)[C@@H](NC(=O)[C@H]2CCCCN2C)C(C)(C)C)OC(C)=O)n1	N
CN(CCCl)c1ccc(/C=C/C2=[N+](C)c3ccccc3C2(C)C)cc1	Y
COc1cc2cc(C(=O)N3C[C@@H](CCl)c4c3cc(OC(=O)N3CCN(C)[C@@H]5CSSC[C@H]53)c3ccccc43)[nH]c2c(OC)c1OC	Y
CN1CC2CCC(C1)C2=O	N
CCOc1c(Cl)cc(CNC(C)C(O)c2ccccc2)cc1OC (stereo not given)	N
O=C1Nc2ccccc2C2c3cccn3-c3ccccc3CN12 (stereo not given)	N

----------
- Tested on: SF-539 CNS
- method_description: NCI-60 one-dose screen, 48 h (100 = growth as untreated, 0 = no growth, -100 = all killed)
- condition_context: 10 µM
About 83,000 compounds went through this panel and 20% of them were active in at least one assay; those are over-represented in the sample as a whole.
metric: growth (%)

> print(dat)
                                   compound  experimental.system  numeric.result
1  COc1cc2cc(C(=O)N3C[C@@H](CCl)c4c3cc(OC(=O)N3CCN(C(=O)CCC(=O)N5CCN(C)CC5)[C@@H]5CSSC[C@@H]53)c3ccccc43)[nH]c2c(OC)c1OC           SF-539 CNS           -91.8
2           O=C(NC([Se])=NC1CCCCC1)c1ccccc1           SF-539 CNS            14.3
3  O=C(NCCCCC(c1ccc(F)cc1)c1ccc(F)cc1)Nc1ccc([N+](=O)[O-])c(C(F)(F)F)c1           SF-539 CNS           -28.2
4  CC(=C\C(=O)Oc1ccc2c3c1OC1C(O)CCC4(O)C(C2)N(CC2CCC2)CCC314)/C=C1\CCCc2ccccc21 (centres undefined)           SF-539 CNS            67.8
